Known MIC80 of a selection of compounds
# Tested on: Cryptococcus neoformans
# Experiment: Antifungal activity against Cryptococcus neoformans BLS108 after 72 hrs by micro-broth dilution method
# Type: functional
# Stated conditions: BLS108, 72 h
Quick note: give the figure in µg/mL, leave out the unit.

Field: example entries. Status: answers known.
Request: Quick check: MIC80 of O=c1n(-c2ccccc2Cl)cnn1CC(O)(Cn1cncn1)c1ccc(F)cc1F (racemic) ?
Response: 64

Request: # iterate: O=C(Nc1ccc(-n2cnn(CC(O)(Cn3cncn3)c3ccc(F)cc3F)c2=O)cc1)c1ccco1 (racemic)
Response: 16

Request: # iterate: CCCCC(=O)Nc1ccc(-n2cnn(CC(O)(Cn3cncn3)c3ccc(F)cc3F)c2=O)cc1 (racemic)
Response: 0.0625

Further cases:
Request: Quick check: MIC80 of O=c1n(-c2nc(-c3ccc(Cl)cc3Cl)cs2)cnn1CC(O)(Cn1cncn1)c1ccc(F)cc1F (racemic) ?
Response: 64

----------
Known MIC80 of a selection of compounds
# System: Cryptococcus neoformans
# Experiment: Antifungal activity against Cryptococcus neoformans BLS108 after 72 hrs by micro-broth dilution method
# Assay type: functional
# Stated conditions: BLS108, 72 h
Quick note: give the figure in µg/mL, leave out the unit.

Field: example entries. Status: answers known.
Request: Quick check: MIC80 of CCCCCC(=O)Nc1ccc(-n2cnn(CC(O)(Cn3cncn3)c3ccc(F)cc3F)c2=O)cc1 (racemic) ?
Response: 0.0625

Request: # iterate: O=c1n(-c2ccc(Cl)c(Cl)c2)cnn1CC(O)(Cn1cncn1)c1ccc(F)cc1F (racemic)
Response: 0.25

Request: # iterate: O=C(Nc1ccc(-n2cnn(CC(O)(Cn3cncn3)c3ccc(F)cc3F)c2=O)cc1)c1cccnc1 (racemic)
Response: 64

Further cases:
Request: Quick check: MIC80 of O=c1n(-c2ccc(Cl)cc2)cnn1CC(O)(Cn1cncn1)c1ccc(F)cc1F (racemic) ?
Response: 64

Request: # iterate: OC(Cn1cncn1)(Cn1cncn1)c1ccc(F)cc1F [FLUCONAZOLE]
Response: 1

Request: # iterate: O=c1n(-c2ccc(Br)cc2)cnn1CC(O)(Cn1cncn1)c1ccc(F)cc1F (racemic)
Response: 16

Request: # iterate: O=c1n(-c2nccs2)cnn1CC(O)(Cn1cncn1)c1ccc(F)cc1F (racemic)
Response: 64

Request: # iterate: Cc1ccc(-n2cnn(CC(O)(Cn3cncn3)c3ccc(F)cc3F)c2=O)nc1 (racemic)
Response: 16
